Molecular target: α2-GABAA receptor (Homo sapiens, UniProt P18507+P47869)
Construct: expressed in transfected cells
Assay: Radioactive ligand (3H-flunitrazepam) competitive binding assay, BZD site of membrane proteins of α2-GABAAR-HEK293 cells
Settings: competition with 1 nM 3H-flunitrazepam; HEK293 membranes expressing α2, β3, γ2 subunits; Ki calculated from IC50; read-out: α2 Ki
pKi: −log10 of the molar value.
assay.readout: pKi

• COc1cccc(F)c1-c1cccn2c(N)c(C(=O)NC3CCCC3)nc12 = 7.47
• CCCNC(=O)c1nc2c(N3CCOCC3C)cccn2c1N (stereo not shown) = 7.05
• CCCNC(=O)c1nc2c(-c3cccc(C(F)(F)F)c3)cccn2c1N = 7.45
• CCCNC(=O)c1nc2c(-c3c(F)ccc4c3oc(=O)n4C)cccn2c1N = 7.40
• COc1cccc(F)c1-c1cccn2c(N)c(C(=O)Nc3ccccc3)nc12 = 7.36
• CCCNC(=O)c1nc2c(-c3cccc(CC#N)c3)cccn2c1N = 7.67
• CCCNC(=O)c1nc2c(-c3cc(C(F)(F)F)ccc3OC)cccn2c1N = 7.46
• [2H]c1ccc(F)c(-c2cccn3c(N)c(C(=O)NCCC)nc23)c1OC = 7.87
• CCCNC(=O)c1nc2c(-c3cnccc3OC)cccn2c1N = 7.77
• CCCNC(=O)c1nc2c(-c3cc(F)ccc3F)cccn2c1N = 7.95
• CCCNC(=O)c1nc2c(-c3cc(C#N)ccc3OC)cccn2c1N = 8.24
• CCCNC(=O)c1nc2c(-c3ccc(F)c(C#N)c3)cccn2c1N = 7.42
• CCCNC(=O)c1nc2c(-c3c(F)cccc3OC)c(C#N)ccn2c1N = 8.35
